Give MIC for every item shown.
# Test system: Bacteroides thetiotaomicron ATCC 29741
# assay.text: MIC by broth microdilution (CLSI), QC strain
# Type: cell-based
# condition.summary: Bacteroides, ATCC29741
Answers are plain numbers, in mg/L.

COc1c(N2C[C@@H]3CCCN[C@@H]3C2)c(F)cc2c(=O)c(C(=O)O)cn(C3CC3)c12 : 8
O=C(N[C@H](CO)[C@H](O)c1ccc([N+](=O)[O-])cc1)C(Cl)Cl : 8
CO/N=C(\C(=O)N[C@@H]1C(=O)N2C(C(=O)O)=CCS[C@H]12)c1csc(N)n1 : 16
C[C@@H](O)[C@H]1C(=O)N2C(C(=O)O)=C(S[C@@H]3CN[C@H](C(=O)N(C)C)C3)[C@H](C)[C@H]12 : 0.5

Read the next record carefully.
[Q] Sample Cc1ncc([N+](=O)[O-])n1CCO — what was its MIC?
[A] 2

====

Give MIC for every item shown.
# Test system: Faecalibacterium prausnitzii EB-FPYYK1
# assay.text: MIC by broth microdilution (CLSI)
# Type: cell-based
# condition.summary: Faecalibacterium prausnitzii, EBFPYYK1; test strain EB-FPYYK1; read-out: MIC
One number for each entry, in µg/mL.

Examples from the recorded data:
Cc1ncc([N+](=O)[O-])n1CCO : 2
O=C(N[C@H](CO)[C@H](O)c1ccc([N+](=O)[O-])cc1)C(Cl)Cl : 256

Read the next record carefully.
[Q] Sample CO/N=C(\C(=O)N[C@@H]1C(=O)N2C(C(=O)O)=CCS[C@H]12)c1csc(N)n1 — what was its MIC?
[A] 128

====

Give MIC for every item shown.
# Test system: Faecalibacterium prausnitzii EB-FPYYK1
# assay.text: MIC by broth microdilution (CLSI)
# Format: cell-based
# condition.summary: Faecalibacterium prausnitzii, EBFPYYK1; test strain EB-FPYYK1; read-out: MIC

Examples from the recorded data:
CCC[C@@H]1C[C@@H](C(=O)N[C@@H]([C@H]2O[C@H](SC)[C@H](O)[C@@H](O)[C@H]2O)[C@H](C)Cl)N(C)C1 : ≤ 0.125 µg/mL
COc1c(N2C[C@@H]3CCCN[C@@H]3C2)c(F)cc2c(=O)c(C(=O)O)cn(C3CC3)c12 : > 32 µg/mL

[Q] Under Faecalibacterium prausnitzii EB-FPYYK1: MIC value of C[C@@H](O)[C@H]1C(=O)N2C(C(=O)O)=C(S[C@@H]3CN[C@H](C(=O)N(C)C)C3)[C@H](C)[C@H]12 ?
[A] > 64 µg/mL
